For each record, write down the corresponding pIC50.
Subject Of Test: ATM (Homo sapiens)
Construct: detecting phosphorylation of Chk2 in a human non-small cell lung cancer cell line NCI-H460 (ATCC company); host or cells: NCI-H460 human non-small cell lung cancer cells
Sequence (Q13315 whole entry): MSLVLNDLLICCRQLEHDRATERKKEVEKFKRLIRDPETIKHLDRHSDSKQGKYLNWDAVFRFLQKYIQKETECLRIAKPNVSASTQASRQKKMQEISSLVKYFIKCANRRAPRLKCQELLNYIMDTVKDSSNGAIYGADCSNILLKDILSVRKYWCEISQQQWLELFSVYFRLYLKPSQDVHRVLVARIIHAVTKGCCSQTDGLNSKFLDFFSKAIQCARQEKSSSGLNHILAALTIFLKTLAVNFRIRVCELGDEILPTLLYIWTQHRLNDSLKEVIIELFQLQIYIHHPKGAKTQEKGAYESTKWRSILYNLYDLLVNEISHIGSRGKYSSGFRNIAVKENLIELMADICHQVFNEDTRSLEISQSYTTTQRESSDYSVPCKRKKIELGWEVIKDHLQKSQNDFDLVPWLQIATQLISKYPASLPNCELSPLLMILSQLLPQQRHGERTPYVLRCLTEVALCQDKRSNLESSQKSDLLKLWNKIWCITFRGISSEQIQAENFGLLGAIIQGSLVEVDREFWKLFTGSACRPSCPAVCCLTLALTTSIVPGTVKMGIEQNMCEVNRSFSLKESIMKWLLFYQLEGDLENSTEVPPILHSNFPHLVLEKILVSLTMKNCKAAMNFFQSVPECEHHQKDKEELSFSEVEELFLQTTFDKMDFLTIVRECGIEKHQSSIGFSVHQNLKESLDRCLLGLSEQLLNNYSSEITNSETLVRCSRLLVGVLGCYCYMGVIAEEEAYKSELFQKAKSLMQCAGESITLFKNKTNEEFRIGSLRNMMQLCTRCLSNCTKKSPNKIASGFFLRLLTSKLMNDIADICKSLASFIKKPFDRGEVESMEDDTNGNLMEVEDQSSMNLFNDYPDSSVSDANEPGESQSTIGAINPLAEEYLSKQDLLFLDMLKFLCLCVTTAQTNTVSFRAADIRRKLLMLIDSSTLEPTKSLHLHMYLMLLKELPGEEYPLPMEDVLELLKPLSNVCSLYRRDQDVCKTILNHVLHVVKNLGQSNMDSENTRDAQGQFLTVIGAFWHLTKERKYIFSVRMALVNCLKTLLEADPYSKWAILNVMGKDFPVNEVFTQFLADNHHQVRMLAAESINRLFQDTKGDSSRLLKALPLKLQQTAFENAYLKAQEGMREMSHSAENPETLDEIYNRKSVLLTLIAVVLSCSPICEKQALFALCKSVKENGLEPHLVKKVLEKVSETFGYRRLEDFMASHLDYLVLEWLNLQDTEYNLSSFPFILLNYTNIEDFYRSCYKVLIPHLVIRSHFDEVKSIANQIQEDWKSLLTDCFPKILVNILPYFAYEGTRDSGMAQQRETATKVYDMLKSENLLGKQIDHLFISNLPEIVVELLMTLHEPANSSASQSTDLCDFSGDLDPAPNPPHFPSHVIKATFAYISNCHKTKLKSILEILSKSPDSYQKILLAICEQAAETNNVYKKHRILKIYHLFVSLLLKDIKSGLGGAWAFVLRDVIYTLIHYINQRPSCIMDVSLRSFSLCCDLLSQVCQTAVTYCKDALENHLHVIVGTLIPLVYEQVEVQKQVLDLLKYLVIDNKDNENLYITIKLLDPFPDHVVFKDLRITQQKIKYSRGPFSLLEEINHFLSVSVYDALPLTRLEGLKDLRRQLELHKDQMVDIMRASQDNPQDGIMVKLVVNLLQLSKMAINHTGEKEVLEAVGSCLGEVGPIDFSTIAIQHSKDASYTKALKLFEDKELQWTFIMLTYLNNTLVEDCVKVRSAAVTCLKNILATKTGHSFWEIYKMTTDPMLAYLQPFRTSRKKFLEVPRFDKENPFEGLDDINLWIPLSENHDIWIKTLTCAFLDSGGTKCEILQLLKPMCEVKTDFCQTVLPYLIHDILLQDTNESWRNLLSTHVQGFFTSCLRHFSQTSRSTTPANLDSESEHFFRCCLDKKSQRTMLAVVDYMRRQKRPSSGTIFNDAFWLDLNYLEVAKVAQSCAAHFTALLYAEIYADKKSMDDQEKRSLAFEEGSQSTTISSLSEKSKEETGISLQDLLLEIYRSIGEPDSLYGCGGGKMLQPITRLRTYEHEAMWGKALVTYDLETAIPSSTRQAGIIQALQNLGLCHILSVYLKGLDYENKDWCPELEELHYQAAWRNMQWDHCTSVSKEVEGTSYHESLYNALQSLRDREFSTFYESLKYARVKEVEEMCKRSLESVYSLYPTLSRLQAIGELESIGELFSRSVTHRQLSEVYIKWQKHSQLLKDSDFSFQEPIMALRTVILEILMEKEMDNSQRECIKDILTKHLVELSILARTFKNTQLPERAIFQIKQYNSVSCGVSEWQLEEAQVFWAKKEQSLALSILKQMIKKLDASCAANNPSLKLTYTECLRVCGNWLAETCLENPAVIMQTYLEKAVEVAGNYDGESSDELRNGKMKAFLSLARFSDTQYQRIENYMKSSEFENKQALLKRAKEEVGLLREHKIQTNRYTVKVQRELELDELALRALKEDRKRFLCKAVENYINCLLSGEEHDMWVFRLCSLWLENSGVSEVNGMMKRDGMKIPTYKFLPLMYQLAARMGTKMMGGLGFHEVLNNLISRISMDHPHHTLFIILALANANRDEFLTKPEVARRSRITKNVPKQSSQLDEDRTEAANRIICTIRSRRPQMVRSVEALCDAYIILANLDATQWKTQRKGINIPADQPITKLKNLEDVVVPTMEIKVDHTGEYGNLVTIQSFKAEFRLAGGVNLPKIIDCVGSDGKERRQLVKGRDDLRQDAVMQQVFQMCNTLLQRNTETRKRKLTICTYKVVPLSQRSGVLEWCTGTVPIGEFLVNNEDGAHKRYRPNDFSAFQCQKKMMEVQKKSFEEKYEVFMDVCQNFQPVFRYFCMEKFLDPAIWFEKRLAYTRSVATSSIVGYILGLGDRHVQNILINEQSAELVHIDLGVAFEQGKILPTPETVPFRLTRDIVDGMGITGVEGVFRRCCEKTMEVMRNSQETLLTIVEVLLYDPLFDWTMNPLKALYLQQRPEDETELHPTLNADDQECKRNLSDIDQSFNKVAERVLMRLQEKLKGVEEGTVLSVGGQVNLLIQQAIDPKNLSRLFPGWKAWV
Method Description: ATM inhibition test (phosphorylation of Chk2 generated by ionizing radiation, AlphaScreen SureFire)
Assay type: cell-based
Test Settings: phosphorylated Chk2 in NCI-H460 cells, ionizing radiation 8Gy, 1 hour after test compound treatment; read-out: ATM inhibitory activity
pIC50: −log10 of the molar value.

Need pIC50, item COCCOCC(Nc1ccc2c(c1)Sc1cccc(-c3cc(N4CCOCC4)cc(=O)[nH]3)c1S2)c1ncc(C)cn1 (stereo not shown)
> 7.00

So what does the record say about pIC50 for "COc1cccnc1CNc1ccc2c(c1)Cc1cccc(-c3cc(N4CCOCC4)cc(=O)[nH]3)c1O2" ?
6.30 to 7.00

For the compound shown here, CNCc1cccc(C(C)Nc2ccc3c(c2)Sc2cccc(-c4cc(N5CCOCC5)cc(=O)[nH]4)c2S3)n1 (stereo not shown) , give the reported pIC50.
6.30 to 7.00

Query (compound): "O=c1cc(N2CCOCC2)cc(-c2cccc3c2Oc2ccc(NCc4cncc(-n5cccn5)c4)cc2C3)[nH]1" ; field requested: pIC50
6.30 to 7.00

Please look up its pIC50: "N#Cc1cccc(CNc2ccc3c(c2)Sc2cccc(-c4cc(N5CCOCC5)cc(=O)[nH]4)c2O3)n1"
> 7.00

Requested read-out: pIC50. Entry: COC(=O)C(Nc1ccc2c(c1)Sc1cccc(-c3cc(N4CCOCC4)cc(=O)[nH]3)c1S2)c1ccc(C)cn1 (stereo not shown)
> 7.00

Query (compound): "O=c1cc(N2CCOCC2)cc(-c2cccc3c2Oc2ccc(NC4CCN(Cc5cncnc5)CC4)cc2C3)[nH]1" ; field requested: pIC50
6.30 to 7.00

Request the reported pIC50 associated with "O=c1cc(N2CCOCC2)cc(-c2cccc3c2Oc2ccc(NCc4cncc(C5CCCC5)c4)cc2C3)[nH]1"
> 7.00

Which pIC50 is listed for Cc1ccc(C(CO)Nc2ccc3c(c2)Sc2cccc(-c4cc(N5CCOCC5)cc(=O)[nH]4)c2S3)nc1 (stereo not shown) ?
6.30 to 7.00

Field request: pIC50 | item: CC1CN(CCNc2ccc3c(c2)Sc2cccc(-c4cc(N5CCOCC5)cc(=O)[nH]4)c2S3)CCO1 (stereo not shown)
> 7.00

Bench note: what pIC50 did CC(Nc1ccc2c(c1)Cc1cccc(-c3cc(N4CCOCC4)cc(=O)[nH]3)c1O2)c1ccncn1 (stereo not shown) show?
5.70 to 6.30

Which value of pIC50 has been reported for COc1cccc(C(C)Nc2ccc3c(c2)Cc2cccc(-c4cc(N5CCOCC5)cc(=O)[nH]4)c2O3)n1 (stereo not shown) in the records?
6.30 to 7.00

May I ask what pIC50 has been recorded for "O=c1cc(N2CCOCC2)cc(-c2cccc3c2Oc2ccc(NCc4ccncc4Cl)cc2C3)[nH]1" ?
6.30 to 7.00

# pIC50 lookup, item Cc1ccc(C(CC2CCCCC2)Nc2ccc3c(c2)Sc2cccc(-c4cc(N5CCOCC5)cc(=O)[nH]4)c2S3)nc1 (stereo not shown)
5.70 to 6.30

So what does the record say about pIC50 for "O=c1cc(N2CCOCC2)cc(-c2cccc3c2Sc2ccc(N[C@H](CCN4CCOCC4)CN4CCOCC4)cc2S3)[nH]1" ?
6.30 to 7.00

Which value of pIC50 has been reported for "O=c1cc(N2CCOCC2)cc(-c2cccc3c2Oc2ccc(NCc4cncc(-c5cn[nH]c5)c4)cc2C3)[nH]1" in the records?
6.30 to 7.00

Origin of values: patent US9586951B2
